Listing of entries alongside the reported growth inhibition.
test-protocol: NCI Yeast Anticancer Drug Screen. Data for the mlh1 rad18 strain (AID 175)
condition-set: S. cerevisiae mlh1 rad18 strain growth inhibition; at 50.0 µM; hits give high values
Compounds without any hit were thinned out: in the full panel of roughly 79,000, 15% have a hit. *1 amine or outer side, *2 acyl side, *3 side chain or, on linkers, in order; H or OH if unused. Where a SMILES comes first, the peptide text is derived from it. Bridges are numbered along the chain shown (N, C = ends). [ ]: non-standard residue; d: D form. The star is where a group is joined. X16 = CC(C)C(C)C(C(=O)[*:2])N(C)[*:1]; Picolinoyl(3-OH) = O=C(c1ncccc1O)*; NMePhg = CN[CH](C(=O)O)c1ccccc1; Hyp = O=C(O)[CH]1C[CH](O)CN1; Sar = CNCC(=O)O
Output spec: scalar in %, unitless text.

# count of solved cases: 5
>  <compound>
CC(C)CC1NC(=O)C(NC(=O)c2ncccc2O)C(C)OC(=O)C(c2ccccc2)N(C)C(=O)C(C)NC(=O)C(C(C)C(C)C)N(C)C(=O)CN(C)C(=O)C2CC(O)CN2C1=O (stereo not drawn) ({Picolinoyl(3-OH)}-TL[Hyp][Sar][X16]A[NMePhg]; ester 1-C; configuration not given here)

>  <unit-abbrev>
%

>  <value-observed>
-2.35

$$$$
>  <compound>
Cc1ccc(S(=O)(=O)/C(=C/c2ccccc2)CC(=O)c2ccccc2)cc1

>  <unit-abbrev>
%

>  <value-observed>
17

$$$$
>  <compound>
CCOC(=O)/C=C(/C)N

>  <unit-abbrev>
%

>  <value-observed>
-0.75

$$$$
>  <compound>
CC1=[N+]([O-])C2(CCCC2)N(O)C1(C)C

>  <unit-abbrev>
%

>  <value-observed>
12.8

$$$$
>  <compound>
Cc1c(CCCl)c(=O)n2c([nH]c3ccccc32)c1C#N

>  <unit-abbrev>
%

>  <value-observed>
62

$$$$

Please report the recorded growth inhibition for `NC(CC(=O)Nc1ccc(Cl)cc1)=Nc1ccccc1` .
-18.9

Name the reported growth inhibition value associated with the compound `COc1ccccc1C(=O)c1ccccc1`
-11.2

GET /values?readout=growth inhibition&item= `C=CCSc1nc2ccc(NCn3c(=S)sc4ccccc43)cc2s1`
56.7

Look at this compound and give its reported growth inhibition. NC1CCC2(O)c3ccccc3C2C1 (stereo not drawn)
7.35

Record request: growth inhibition value, item O=C1CSC(c2ccccc2C(F)(F)F)N1c1nncs1 (stereo not drawn)
9.8

I would be grateful if you could share the reported growth inhibition for CCN(CC)CC(c1ccccc1)C(C)(O)c1ccccc1 (stereo not drawn) .
-22.4

Quick one: growth inhibition of `NC1=NS(=O)(=O)Nc2nc(-c3ccc([N+](=O)[O-])o3)[nH]c21` ?
50.5

For `O=C(Nc1cc(-c2ccccc2)nn1-c1ccccc1)c1ccc(Cl)cc1` , what is its reported growth inhibition?
-9.65

Requested field: growth inhibition. Item: C=CCC12CC(C)OC1=Nc1ccccc1NC2=O (stereo not drawn)
-9.8

Could you share which growth inhibition value was measured for COc1cc(C2SCCCCCCCCCCSC(c3ccc(O)c(OC)c3)SCCCCCCCCCCS2)ccc1O (stereo not drawn) ?
-6.9

Recorded growth inhibition of `c1ccc2cc(SSc3ccc4ccccc4c3)ccc2c1` , please.
-4.85

Which value of growth inhibition has been reported for `CNC(=S)N(C)c1ccccc1` in the records?
-23.3

Any idea what its growth inhibition is? The compound is `COCCc1ccncc1`
-7.9

Sample CC(C)CCCC(C)C1CCC2C3CC=C4CCCCC4(C)C3CCC12C (stereo not drawn) — what was its growth inhibition?
-23.6

Endpoint output: growth inhibition of `Nc1nc(N)c2ccccc2n1` . Value?
-1.7

Fill blank: measured growth inhibition of the compound CCc1ccc(NC(=S)NC(=O)C(C)Oc2ccccc2)cc1 (stereo not drawn) is ____.
8.9

Name the reported growth inhibition value associated with the compound COc1cc2oc3c(C)c(=O)cc4oc(-c5ccccc5)cc(c2c2c1CCC(c1ccccc1)O2)c43 (stereo not drawn)
-0.7

I am curious: what growth inhibition value has been reported for CC(O)CN1c2ccccc2Sc2ccccc21 (stereo not drawn) ?
7.55
